- Test system: HCT-15 colon
- assay-overview: NCI-60 one-dose screen, 48 h (100 = growth as untreated, 0 = no growth, -100 = all killed)
- experimental-context: 10 µM unless noted
About 83,000 compounds went through this panel and 20% of them were active in at least one assay; those are over-represented in the sample as a whole.
value-type: growth (%)
Numbers only, in %.

Answered cases to consult:
> print(dat)
                                   molecule  measured.result
1  CCC1S/C(=N\N=C(/C)c2cc3ccccc3o2)N(c2ccccc2)C1=O (centres undefined)              107
2  COc1ccc(-c2cc(-c3nnc(SC/C(=N\O)c4ccccc4)n3-c3ccccc3)c3ccccc3n2)cc1              107
3  C=C1C(=O)O[C@H]2[C@H]1CC/C(COC(=O)CCCC(=O)OC/C1=C/CC[C@@]3(C)O[C@H]3[C@H]3OC(=O)C(=C)[C@@H]3CC1)=C\CC[C@@]1(C)O[C@@H]21             4.33
4                    Cc1ncc(CO)c(C(=O)O)c1O              105
5  COc1cc2c(cc1OCCCCC(=O)Nc1ccc(-c3nc4ccccc4s3)cc1)N=C[C@@H]1CCCN1C2=O             10.6

Field: growth. Fill in for each record below.
1. CCc1c(C)c2cc3nc(NCc4ccccc4)oc3c(C)c2oc1=O
2. CCCCOc1nc2ccc(Cl)cc2cc1/C=C/C(=O)/C=C/c1ccc(Cl)cc1

**Result**
[74.7, 81.9]

Field: growth. Fill in for each record below.
1. CC(C)NCC(O)COc1ccc(CC(N)=O)cc1 (centres undefined)
2. CC(=O)c1cc2c(N)c(C(=O)Nc3cccc(Cl)c3)sc2nc1C

**Result**
99.3
72.4

Field: growth. Fill in for each record below.
1. C=C1C(=O)O[C@H]2[C@H]1CC/C(COC(=O)OC/C1=C/CC[C@@]3(C)O[C@H]3[C@H]3OC(=O)[C@@H](CN(C)C)[C@@H]3CC1)=C\CC[C@@]1(C)O[C@@H]21
2. CCc1cccc(C)c1NC(=O)c1sc2nc3c(cc2c1N)CCCCC3
3. C#CC(=O)/C=C/CCCCCCC#CC(=O)CCC(=O)C#CCCCCCC/C=C/C(=O)C#C
4. CC(=O)CC/C=C(\C)[C@H](O)[C@H](C)C(=O)O[C@H]1C[C@H](C)C=C2C=C[C@@]3(C)O[C@@H](O)CC(=O)[C@]3(C)[C@H]21
5. c1ccc2nc(Cn3cc[n+](Cc4ccc5ccccc5n4)c3)ccc2c1

**Result**
1: 1.8; 2: 27.5; 3: 12.4; 4: 0.209; 5: 102

Data provenance is PubChem BioAssay (NCI).
